System: Jurkat J.γ
Experiment: Cell viability assay
Format: cell-based
Details: Homo sapiens, Jurkat, 72 h, read-out: Cellular IC50 Jurkat J.γ, 72 hours, MTS
readout-kind: pIC50
The read-out pIC50 is expressed as -log10 of concentration in moles per litre.

Query block: Test system Jurkat J.γ; read-out pIC50; what value for Oc1cccn(CCCCCn2cc(-c3ccccc3)nn2)c1=S [Compound 10d] ?
Result block: 6.00
